run.description: gradient 5% acetonitrile 3 min, to 50% in 2 min, to 85% in 15 min, held 3 min, 100 µL/min
settings: column: Zorbax Extend-C18 2.1 x 50 mm; eluents: water / acetonitrile, 0.1% formic acid
recorded.endpoint: RP-LC retention time (s)

1. CCn1c(=O)c2ccccc2n(Cc2nc(-c3ccc(OC)cc3)no2)c1=O | 993
2. CC1(C)CC(=O)c2cn(-c3ccc(F)cc3)c(=O)c(C(=O)N3CCc4ccccc43)c2C1 | 954
3. N#CC1CC(c2ccccc2)Nc2cc(Cl)ccc2N1 (stereo unspecified) | 912
4. O=C(CC1CCCN(c2cn[nH]c(=O)c2)C1)N1CCSCC1 (stereo unspecified) | 617
5. COCCN(Cc1ccsc1)C(=O)C1(c2cccs2)CCCC1 | 1070
6. CCc1ccc(-c2csc(Nc3cc(C)ccn3)n2)cc1 | 1040
7. O=C(Nc1ccc(F)cc1)N1CCC(N2CCN(Cc3cccc(F)c3)C(=O)C2=O)CC1 | 722
8. Cn1cc2c3c(cccc31)CN(C(=O)c1ccccc1Cl)CC2 | 975
9. CC(C)Cn1c(=O)c(C(=O)NCCc2ccccn2)nc2cccnc21 | 604
10. O=C(Cn1ccn2nc(-c3ccc(F)cc3)c(CO)c2c1=O)NCCC1=CCCCC1 | 900
11. O=C(c1ccc(-c2cccs2)nc1)N1CCCCC1 | 813
